Reference for the values: PubChem BioAssay AID1159580

experiment: chemical genetic growth profiling, strain panel (AID 1159580);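 further: tested at 20 µM; growth read once vehicle control cultures reached saturation at 30 °C; 1 = growth at the plate median or of vehicle wells; lower values mean less growth of the strain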; conditions: S. cerevisiae deletion strains, growth OD, locus YLR371W, strain rom2, hits give low values
Among all 5,500 compounds or so, about 2,000 (36%) were called active. Another 18% or so got no clear call; they are omitted. Some of the results follow.
measured-quantity: normalized growth

[[record]]
molecule = "C[C@@H]1O[C@@H](O[C@H]2CC[C@]3(C=O)C4CC[C@]5(C)[C@@H](C6=CC(=O)OC6)CC[C@]5(O)C4CC[C@]3(O)C2)[C@H](O)[C@H](O)[C@H]1O (some centres undefined)"
test_result = 0.978

[[record]]
molecule = "C[C@]12CC[C@H](O)C[C@H]1CCC1C2CC[C@]2(C)[C@@H](C3=CC(=O)OC3)[C@@H](O)C[C@]12O (some centres undefined)"
test_result = 1

[[record]]
molecule = "CC(=O)OCC(=O)[C@@]1(O)CCC2C3C[C@H](C)C4=CC(=O)C=CC4(C)C3[C@@H](O)CC21C (some centres undefined)"
test_result = 1

[[record]]
molecule = "Oc1ccc2c3c1OC1[C@@H](O)CC[C@@]4(O)[C@@H](C2)N(CC2CCC2)CC[C@]314 (some centres undefined)"
test_result = 1.02

[[record]]
molecule = "COc1cc(C)c2c(=O)c3c(O)cc(OC)cc3oc2c1"
test_result = 0.984

[[record]]
molecule = "COc1cc(C)c2c(=O)c3c(O)cc(O)cc3oc2c1"
test_result = 0.936

[[record]]
molecule = "CC12CCC3C(CCC4(O)CC(O)CCC34/C=N/NC(N)=O)C1(O)CCC2C1=CC(=O)OC1 (centres undefined)"
test_result = 0.994

[[record]]
molecule = "CC(C)=CC1C(CO)C1(C)C (centres undefined)"
test_result = 1

[[record]]
molecule = "Cc1ccc(C(C)C)c(O)c1C(=O)O"
test_result = 0.94

